target.of.assay: T1, TNFR2 on human K562 chronic myeloid leukemia cells and on primary human Treg cells (human, UniProt P20333 23-461)
T1 construct: whole, on cells; also called K562 cells
T1 sequence (looked up): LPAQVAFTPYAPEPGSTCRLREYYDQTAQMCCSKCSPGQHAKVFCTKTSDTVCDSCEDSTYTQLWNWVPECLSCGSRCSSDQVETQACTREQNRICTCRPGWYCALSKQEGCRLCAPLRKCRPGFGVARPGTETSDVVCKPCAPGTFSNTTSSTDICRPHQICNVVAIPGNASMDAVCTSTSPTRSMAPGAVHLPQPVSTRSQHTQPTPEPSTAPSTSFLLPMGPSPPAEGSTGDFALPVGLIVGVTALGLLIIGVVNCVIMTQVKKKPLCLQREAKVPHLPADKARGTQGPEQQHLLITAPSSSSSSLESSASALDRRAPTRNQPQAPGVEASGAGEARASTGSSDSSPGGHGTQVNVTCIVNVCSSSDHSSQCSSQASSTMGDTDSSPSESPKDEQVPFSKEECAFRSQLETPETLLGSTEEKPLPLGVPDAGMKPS
test: flow cytometry on primary human Treg cells, MFI(FL2); unit taken from the axis Conc log(nM)
Reported EC50 values for the following binders.
metric.name: EC50 (nM)

- binder: "humanized antibody hz69B1.5 (antibody, human IgG1, kappa, V domains shown) VH: QIQLVQSGSELKKPGASVKVSCKASGYTFTDYSMNWVRQAPGQGLEWMGWLNTETGEPIYADDFKGRFVFSLDTSVSTAYLQISSLKAEDTAVYFCAREAIYYGTSYVLDYWGQGTLVTVSS VL: DIVLTQSPASLAVSPGQRATITCRASESVEYYGTNFMQWYQQKPGQPPKLLIYSASNVESGVPARFSGSGSGTDFTLTINPVEANDTANYYCQQSRKDPSTFGQGTKLEIKR"
  metric.name: "EC50"
  number: 0.0239
- binder: "humanized antibody hz3C4.7 (antibody, human IgG1, kappa, V domains shown) VH: QVQLVQSGAEVKKPGASVKVSCKASDYSFTNYYIHWVRQAPGQGLEWMGWIYPGNVITKYHEKFKGRVTMTADTSTSTAYMELSSLRSEDTAVYYCARSRATGYFDYWGQGTLVTVSS VL: DIQMTQSPSSLSASVGDRVTITCRASQDIRNYLNWYQQKPGKAPKLLIYYTSRLHSGVPSRFSGSGSGTDYTLTISSLQPEDFATYYCQQFNTLPWTFGGGTKVEIKR"
  metric.name: "EC50"
  number: 0.0599
- binder: "humanized antibody hz69B1.11 (antibody, human IgG1, kappa, V domains shown) VH: QVQLVQSGAEVKKPGASVKVSCKASGYTFTDYSMNWVRQAPGQRLEWMGWLNTETGEPIYADDFKGRVTITRDTSASTAYMELSSLRSEDTAVYYCAREAIYYGTSYVLDYWGQGTLVTVSS VL: DIVLTQSPASLAVSPGQRATITCRASESVEYYGTNFMQWYQQKPGQPPKLLIYSASNVESGVPARFSGSGSGTDFTLTINPVEAQDTANYFCQQSRKDPSTFGQGTKLEIKR"
  metric.name: "EC50"
  number: 0.0243
- binder: "positive control antibody OPI (humanized antibody SBT-002e in WO 2017083525) (antibody, V domains shown, also called Benchmark OPI) VH: QVTLKESGPALVKPTQTLTLTCTFSGFSLSTSGMGVGWIRQPPGKALEWLAHIWWDDDKFYNPSLKSRLTISKDTSKNQVVLTMTNMDPVDTATYYCARLTGTRYFDYWGQGTTVTVSS VL: DVQMTQSPSSLSASVGDRVTITCKASQDINKFIAWYQQKPGKAPKLLIHYTSTLQPGIPSRFSGSGSGRDYTFTISSLQPEDIATYYCLQYGNLWTFGGGTKVEIK"
  metric.name: "EC50"
  number: 0.0738

These data points were gathered from patent US20240026019A1.
